# System: ZEB2
# assay.explanation: 3' UTR reporter interaction score (median-centred robust z-score of log2 firefly/Renilla activity); higher = less repression of the 3' UTR reporter
# condition.parameters: HEK293T; 48 h
reported.endpoint: 3' UTR reporter interaction score
Respond numerically, and do not add a unit to the figure.

UAGGUAGUUUCAUGUUGUUGG ... 0.231
ACUGCCCUAAGUGCUCCUUCU ... -0.687
UUCCCUUUGUCAUCCUUCGCCU ... -0.675
AAUUGCACGGUAUCCAUCUGUA ... -3.51
AAAGUGCUUCCUUUUAGAGGC ... 0.738

// next item, 3' UTR reporter interaction score requested
## Task Complete the entry with 3' UTR reporter interaction score for AGGCAGUGUAGUUAGCUGAUUGC
## Result -0.539

* * *

# System: PHF6
# assay.explanation: 3' UTR reporter interaction score (median-centred robust z-score of log2 firefly/Renilla activity); higher = less repression of the 3' UTR reporter
# condition.parameters: HEK293T; 48 h
Decision: 3' UTR reporter interaction score >= -0.08 yields 1.0, all other cases yield 0.0.

Known results for sequences:
CAAAGUUUAAGAUCCUUGAAGU ... 1.0
UCACUCCUCUCCUCCCGUCUUCU ... 1.0

## Task Please indicate if the recorded 3' UTR reporter interaction score for UGUGACAGAUUGAUAACUGAAA meets or exceeds -0.08.
## Result 0.0

## Task Please indicate if the recorded 3' UTR reporter interaction score for CAAAGCGCUUCCCUUUGGAGC meets or exceeds -0.08.
## Result 1.0

## Task Please indicate if the recorded 3' UTR reporter interaction score for AGGCAGUGUAUUGUUAGCUGGC meets or exceeds -0.08.
## Result 0.0

## Task Please indicate if the recorded 3' UTR reporter interaction score for AAACCUGUGUUGUUCAAGAGUC meets or exceeds -0.08.
## Result 0.0

## Task Please indicate if the recorded 3' UTR reporter interaction score for AGGUUGACAUACGUUUCCC meets or exceeds -0.08.
## Result 1.0

## Task Please indicate if the recorded 3' UTR reporter interaction score for UACUCAGGAGAGUGGCAAUCACA meets or exceeds -0.08.
## Result 0.0

## Task Please indicate if the recorded 3' UTR reporter interaction score for UGUCACUCGGCUCGGCCCACUAC meets or exceeds -0.08.
## Result 0.0

## Task Please indicate if the recorded 3' UTR reporter interaction score for UCGGGGAUCAUCAUGUCACGAG meets or exceeds -0.08.
## Result 1.0

## Task Please indicate if the recorded 3' UTR reporter interaction score for UGGUAGACUAUGGAACGUA meets or exceeds -0.08.
## Result 0.0

## Task Please indicate if the recorded 3' UTR reporter interaction score for UAAAGUGCUGACAGUGCAGAU meets or exceeds -0.08.
## Result 1.0

## Task Please indicate if the recorded 3' UTR reporter interaction score for GUGAGUCUCUAAGAAAAGAGGA meets or exceeds -0.08.
## Result 1.0

## Task Please indicate if the recorded 3' UTR reporter interaction score for AAUCAUACAGGGACAUCCAGUU meets or exceeds -0.08.
## Result 0.0

* * *

# Tested on: PHOX2B
# assay.explanation: 3' UTR reporter interaction score (median-centred robust z-score of log2 firefly/Renilla activity); higher = less repression of the 3' UTR reporter
# condition.parameters: HEK293T; 48 h
reported.endpoint: 3' UTR reporter interaction score

## Task Complete the entry with 3' UTR reporter interaction score for CCUAGUAGGUGUCCAGUAAGUGU
## Result 0.805

## Task Complete the entry with 3' UTR reporter interaction score for AAAGUAGCUGUACCAUUUGC
## Result -0.926

## Task Complete the entry with 3' UTR reporter interaction score for AACAUUCAACGCUGUCGGUGAGU
## Result -0.00434

## Task Complete the entry with 3' UTR reporter interaction score for AAUCCUUGGAACCUAGGUGUGAGU
## Result -0.851

* * *

# Test system: MYCN
# assay.explanation: 3' UTR reporter interaction score (median-centred robust z-score of log2 firefly/Renilla activity); higher = less repression of the 3' UTR reporter
# condition.parameters: HEK293T; 48 h
Decision: 3' UTR reporter interaction score >= -0.3 yields Criterion met, all other cases yield Criterion not met.

Known results for sequences:
UAUGGCUUUUCAUUCCUAUGUG ... Criterion met
UCUCCCAACCCUUGUACCAGUG ... Criterion met
UCUGCUCAUACCCCAUGGUUUCU ... Criterion not met
UCGUGCAUCCCUUUAGAGUGUU ... Criterion met
UAAUCUCAGCUGGCAACUGUG ... Criterion met
CAAAAACCACAGUUUCUUUUGC ... Criterion met
UAUGUGGGAUGGUAAACCGCUU ... Criterion met
GAACGCCUGUUCUUGCCAGGUGG ... Criterion not met

## Task Please indicate if the recorded 3' UTR reporter interaction score for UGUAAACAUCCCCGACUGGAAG meets or exceeds -0.3.
## Result Criterion not met

## Task Please indicate if the recorded 3' UTR reporter interaction score for UCCAGUACCACGUGUCAGGGCCA meets or exceeds -0.3.
## Result Criterion not met

## Task Please indicate if the recorded 3' UTR reporter interaction score for ACUUGUAUGCUAGCUCAGGUAG meets or exceeds -0.3.
## Result Criterion met

## Task Please indicate if the recorded 3' UTR reporter interaction score for ACAAAGUGCUUCCCUUUAGAGUGU meets or exceeds -0.3.
## Result Criterion not met

## Task Please indicate if the recorded 3' UTR reporter interaction score for AAUCAUACACGGUUGACCUAUU meets or exceeds -0.3.
## Result Criterion met

## Task Please indicate if the recorded 3' UTR reporter interaction score for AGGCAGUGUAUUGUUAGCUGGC meets or exceeds -0.3.
## Result Criterion not met

## Task Please indicate if the recorded 3' UTR reporter interaction score for UUCACCACCUUCUCCACCCAGC meets or exceeds -0.3.
## Result Criterion met

## Task Please indicate if the recorded 3' UTR reporter interaction score for CUGGGAUCUCCGGGGUCUUGGUU meets or exceeds -0.3.
## Result Criterion met

* * *

# Test system: MYB
# assay.explanation: 3' UTR reporter interaction score (median-centred robust z-score of log2 firefly/Renilla activity); higher = less repression of the 3' UTR reporter
# condition.parameters: HEK293T; 48 h
Decision: 3' UTR reporter interaction score >= 0.4 yields Yes, all other cases yield No.

Known results for sequences:
AACAGGUGACUGGUUAGACAA ... No
CGGGUGGAUCACGAUGCAAUUU ... No
GGCAAGAUGCUGGCAUAGCUG ... Yes
UGUGCAAAUCUAUGCAAAACUGA ... No
UUGGUCCCCUUCAACCAGCUA ... No

## Task Please indicate if the recorded 3' UTR reporter interaction score for UUCAAGUAAUCCAGGAUAGGC meets or exceeds 0.4.
## Result Yes

## Task Please indicate if the recorded 3' UTR reporter interaction score for GAAGUUGUUCGUGGUGGAUUCG meets or exceeds 0.4.
## Result Yes

## Task Please indicate if the recorded 3' UTR reporter interaction score for UCUACAGUGCACGUGUCU meets or exceeds 0.4.
## Result Yes

* * *

# Tested on: MYB
# assay.explanation: 3' UTR reporter interaction score (median-centred robust z-score of log2 firefly/Renilla activity); higher = less repression of the 3' UTR reporter
# condition.parameters: HEK293T; 48 h
reported.endpoint: 3' UTR reporter interaction score
Respond numerically, and do not add a unit to the figure.

Some sequences with known 3' UTR reporter interaction score results, for comparison:
CAAAGUGCUUACAGUGCAGGUAGU ... -0.142
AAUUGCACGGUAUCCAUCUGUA ... 0.44
GAAAACAGCAAUUACCUUUGCA ... -1.17
CAGUGCAAUAGUAUUGUCAAAGC ... -1.09
AUGUAUGUGUGCAUGUGCAUG ... -0.0409

## Task Complete the entry with 3' UTR reporter interaction score for CUUCUUGUGCUCUAGGAUUGU
## Result 0.218

## Task Complete the entry with 3' UTR reporter interaction score for UCCAGCAUCAGUGAUUUUGUUGA
## Result 0.387

## Task Complete the entry with 3' UTR reporter interaction score for AAGCAGCUGCCUCUGAGGC
## Result -1.27

## Task Complete the entry with 3' UTR reporter interaction score for GAAGUGUGCCGUGGUGUGUCU
## Result -0.373

## Task Complete the entry with 3' UTR reporter interaction score for AUUCCUAGAAAUUGUUCAUA
## Result 0.61

* * *

# Test system: NOTCH1
# assay.explanation: 3' UTR reporter interaction score (median-centred robust z-score of log2 firefly/Renilla activity); higher = less repression of the 3' UTR reporter
# condition.parameters: HEK293T; 48 h
reported.endpoint: 3' UTR reporter interaction score
Respond numerically, and do not add a unit to the figure.

AGGCACCAGCCAGGCAUUGCUCAGC ... -0.1
UUGAGAAUGAUGAAUCAUUAGG ... 0.0298
UAUGCAUUGUAUUUUUAGGUCC ... 0.872

## Task Complete the entry with 3' UTR reporter interaction score for GAAGGCGCUUCCCUUUAGAGC
## Result -0.268

## Task Complete the entry with 3' UTR reporter interaction score for UCUUUGGUUAUCUAGCUGUAUGA
## Result -0.836

## Task Complete the entry with 3' UTR reporter interaction score for ACAUAGAGGAAAUUCCACGUUU
## Result 0.306

## Task Complete the entry with 3' UTR reporter interaction score for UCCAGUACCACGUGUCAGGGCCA
## Result 0.223

## Task Complete the entry with 3' UTR reporter interaction score for CAAGAACCUCAGUUGCUUUUGU
## Result -0.974

## Task Complete the entry with 3' UTR reporter interaction score for AUCACAUUGCCAGGGAUUUCC
## Result -0.492

## Task Complete the entry with 3' UTR reporter interaction score for AAUCCUUUGUCCCUGGGUGAGA
## Result 1.42

## Task Complete the entry with 3' UTR reporter interaction score for AUGCACCUGGGCAAGGAUUCUG
## Result 0.738

## Task Complete the entry with 3' UTR reporter interaction score for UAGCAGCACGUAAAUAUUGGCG
## Result -0.0927
